tested on: Escherichia coli TOP10; experiment: shrunken log2 fold change of peptide-encoding DNA abundance (4.5 h post-induction vs induction); higher = less antimicrobial activity (less host growth inhibition); conditions: time post-induction: 4.5 h; library: site-saturation at positions 5, 18, 19, 20
I would appreciate it if you labelled entries Criterion met when shrunken log2 fold change is -0.02 or higher, otherwise Criterion not met.

Answered examples (7):
>>> df
    macromolecule_sequence              group
0  RRIRWRPPRLPRPRPRPDYEPRP  Criterion not met
1  RRIRKRPPRLPRPRPRPVHIPRP  Criterion not met
2  RRIRKRPPRLPRPRPRPHCPPRP      Criterion met
3  RRIRCRPPRLPRPRPRPCWHPRP  Criterion not met
4  RRIRWRPPRLPRPRPRPKTAPRP      Criterion met
5  RRIRSRPPRLPRPRPRPYQMPRP  Criterion not met
6  RRIRLRPPRLPRPRPRPPTMPRP      Criterion met

Now take the following sequence into account.
Exercise: Quick check, shrunken log2 fold change >= -0.02? RRIRNRPPRLPRPRPRPISVPRP
Key: Criterion met

----------
tested on: Escherichia coli TOP10; test: shrunken log2 fold change of peptide-encoding DNA abundance (4.5 h post-induction vs induction); higher = less antimicrobial activity (less host growth inhibition); conditions: time post-induction: 4.5 h; library: site-saturation at positions 5, 18, 19, 20
Examples of sequences with documented shrunken log2 fold change follow.

    macromolecule_sequence        target_or_system  observed_value
0  RRIRLRPPRLPRPRPRPDEGPRP  Escherichia coli TOP10          -0.018

Exercise: Could you share which shrunken log2 fold change value was measured for RRIRTRPPRLPRPRPRPCRLPRP ?
Key: 0.0337

Exercise: Also RRIRCRPPRLPRPRPRPFVGPRP , if possible.
Key: -0.315

Exercise: Also RRIRPRPPRLPRPRPRPLHVPRP , if possible.
Key: -0.163

Exercise: Also RRIRVRPPRLPRPRPRPGSIPRP , if possible.
Key: 0.00983

Exercise: Also RRIRKRPPRLPRPRPRPVFHPRP , if possible.
Key: 0.818

Exercise: Also RRIRFRPPRLPRPRPRPMVVPRP , if possible.
Key: -0.0152

Exercise: Also RRIRARPPRLPRPRPRPKNAPRP , if possible.
Key: 0.323

Exercise: Also RRIRTRPPRLPRPRPRPSIPPRP , if possible.
Key: -0.356

Exercise: Also RRIRERPPRLPRPRPRPHTWPRP , if possible.
Key: -0.33

Exercise: Also RRIRERPPRLPRPRPRPMNNPRP , if possible.
Key: -0.637

Exercise: Also RRIRPRPPRLPRPRPRPAPDPRP , if possible.
Key: 0.309

----------
tested on: Escherichia coli TOP10; assay: shrunken log2 fold change of peptide-encoding DNA abundance (4.5 h post-induction vs induction); higher = less antimicrobial activity (less host growth inhibition); conditions: time post-induction: 4.5 h; library: site-saturation at positions 5, 18, 19, 20
I would appreciate it if you labelled entries TRUE when shrunken log2 fold change is -0.05 or higher, otherwise FALSE.

>>> print(df.to_string())
    macromolecule_sequence  group
0  RRIRKRPPRLPRPRPRPAPYPRP   TRUE
1  RRIRGRPPRLPRPRPRPGAYPRP   TRUE
2  RRIRLRPPRLPRPRPRPSQLPRP  FALSE
3  RRIRFRPPRLPRPRPRPCPVPRP  FALSE
4  RRIRSRPPRLPRPRPRPCKFPRP  FALSE
5  RRIRVRPPRLPRPRPRPYYMPRP  FALSE
6  RRIRYRPPRLPRPRPRPSQNPRP  FALSE
7  RRIRFRPPRLPRPRPRPCVTPRP  FALSE
8  RRIRTRPPRLPRPRPRPFVDPRP  FALSE
9  RRIRPRPPRLPRPRPRPIKMPRP   TRUE

Exercise: Quick check, shrunken log2 fold change >= -0.05? RRIRPRPPRLPRPRPRPRGCPRP
Key: TRUE

Exercise: Also RRIRQRPPRLPRPRPRPVFTPRP , if possible.
Key: FALSE

Exercise: Also RRIRIRPPRLPRPRPRPSSTPRP , if possible.
Key: FALSE

Exercise: Also RRIRQRPPRLPRPRPRPIHEPRP , if possible.
Key: TRUE

Exercise: Also RRIRVRPPRLPRPRPRPSNEPRP , if possible.
Key: FALSE

----------
Examples of sequences with documented shrunken log2 fold change follow.
system: Escherichia coli TOP10; experiment: shrunken log2 fold change of peptide-encoding DNA abundance (4.5 h post-induction vs induction); higher = less antimicrobial activity (less host growth inhibition); conditions: time post-induction: 4.5 h; library: site-saturation at positions 5, 18, 19, 20
// return a plain number; no unit text

Some sequences with recorded shrunken log2 fold change:
    macromolecule_sequence  observed_value
0  RRIRPRPPRLPRPRPRPVDVPRP         -0.0323
1  RRIRYRPPRLPRPRPRPADQPRP         -0.0819
2  RRIRHRPPRLPRPRPRPVAMPRP          -0.123
3  RRIRERPPRLPRPRPRPTSNPRP          -0.504
4  RRIRFRPPRLPRPRPRPNSQPRP          -0.496

Exercise: Could you share which shrunken log2 fold change value was measured for RRIRFRPPRLPRPRPRPSRIPRP ?
Key: -0.119

Exercise: Also RRIRYRPPRLPRPRPRPIQKPRP , if possible.
Key: -0.00992

Exercise: Also RRIRNRPPRLPRPRPRPCANPRP , if possible.
Key: 0.0435

Exercise: Also RRIRMRPPRLPRPRPRPWDAPRP , if possible.
Key: 0.228

Exercise: Also RRIRERPPRLPRPRPRPRRAPRP , if possible.
Key: 0.566

Exercise: Also RRIRIRPPRLPRPRPRPQKMPRP , if possible.
Key: -0.269

----------
system: Escherichia coli TOP10; assay: shrunken log2 fold change of peptide-encoding DNA abundance (4.5 h post-induction vs induction); higher = less antimicrobial activity (less host growth inhibition); conditions: time post-induction: 4.5 h; library: site-saturation at positions 5, 18, 19, 20
recorded-metric: shrunken log2 fold change

Some sequences with recorded shrunken log2 fold change:
In [3]: df
Out[3]:
    macromolecule_sequence  observed_value
0  RRIRMRPPRLPRPRPRPNRLPRP          0.0386
1  RRIRERPPRLPRPRPRPKISPRP        0.000121
2  RRIRTRPPRLPRPRPRPKDFPRP        -0.00116
3  RRIRFRPPRLPRPRPRPCPPPRP          -0.131
4  RRIRLRPPRLPRPRPRPGCYPRP          -0.115
5  RRIRERPPRLPRPRPRPQTPPRP          0.0694
6  RRIRKRPPRLPRPRPRPHCYPRP          -0.605
7  RRIRWRPPRLPRPRPRPKRHPRP           0.467
8  RRIRNRPPRLPRPRPRPWGTPRP          0.0962
9  RRIRIRPPRLPRPRPRPHEAPRP          -0.396

Exercise: Could you share which shrunken log2 fold change value was measured for RRIRIRPPRLPRPRPRPEKKPRP ?
Key: -0.0556

----------
system: Escherichia coli TOP10; experiment: shrunken log2 fold change of peptide-encoding DNA abundance (4.5 h post-induction vs induction); higher = less antimicrobial activity (less host growth inhibition); details: time post-induction: 4.5 h; library: site-saturation at positions 5, 18, 19, 20;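 further: peptides expressed intracellularly from a pBAD plasmid library in pooled LB shake-flask culture, induced with 0.3% L-arabinose, DNA abundance read by NGS, three biological replicates, DESeq2 with apeglm shrinkage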
I would appreciate it if you labelled entries Fulfilled when shrunken log2 fold change is 0.3 or higher, otherwise Not fulfilled.

    macromolecule_sequence        target_or_system          group
0  RRIRVRPPRLPRPRPRPWVDPRP  Escherichia coli TOP10  Not fulfilled

Exercise: Quick check, shrunken log2 fold change >= 0.3? RRIRQRPPRLPRPRPRPRPQPRP
Key: Not fulfilled

Exercise: Also RRIRDRPPRLPRPRPRPGATPRP , if possible.
Key: Fulfilled

Exercise: Also RRIRQRPPRLPRPRPRPNYRPRP , if possible.
Key: Not fulfilled

Exercise: Also RRIRNRPPRLPRPRPRPTQYPRP , if possible.
Key: Not fulfilled

Exercise: Also RRIRVRPPRLPRPRPRPNDWPRP , if possible.
Key: Not fulfilled

Exercise: Also RRIRGRPPRLPRPRPRPVCVPRP , if possible.
Key: Fulfilled

Exercise: Also RRIRVRPPRLPRPRPRPCDPPRP , if possible.
Key: Not fulfilled
